Cited source for all entries: PubChem BioAssay (NCI)

System: A549 NSCLC
Experiment: NCI tumour cell line growth inhibition, 48 h
Property: TGI (µM)

1. CCCCCCCCCC1CC(=O)NCC(=O)NC(C(C)C)C(=O)NC(CC(C)C)C(=O)NC(C)C(=O)NC(C(C)C)C(=O)O1 (stereo not given)	40.9
2. OC(CNc1ccnc2cc(Cl)ccc12)CNC1CCCCC1 (stereo not given)	21.7

----------
System: HOP-62 NSCLC
Experiment: NCI tumour cell line growth inhibition, 48 h
Property: TGI (µM)

1. CN(C)c1ccc(O)c2c1C[C@H]1C[C@H]3[C@H](N(C)C)C(=O)C(C(N)=O)=C(O)[C@@]3(O)C(=O)C1=C2O	71.5
2. CN1CCn2c(c(Sc3ccc(C(=O)NO)cc3)c3ccccc32)C1=O	3.87
3. O=C1C(=C(C(=O)c2ccccc2)C(=O)c2ccccc2)OC(c2ccccc2)=C1C(=O)c1ccccc1	15.6
4. C1=NCCNCCN=Cc2ccccc2OCc2cccc(n2)COc2ccccc21	54.8
